molecular target: guinea pig Sigma Receptor, Non-selective Binding, SIGMAR1 (gene 100135589) (UniProt Q60492); assay: NVS_OR_gSIGMA_NonSelective: NovaScreen (NVS) Nuclear Receptor Binding Assay for guinea pig Sigma Receptor, Non-selective Binding (AID 2283367)
Sequence (Q60492 whole entry, looked up): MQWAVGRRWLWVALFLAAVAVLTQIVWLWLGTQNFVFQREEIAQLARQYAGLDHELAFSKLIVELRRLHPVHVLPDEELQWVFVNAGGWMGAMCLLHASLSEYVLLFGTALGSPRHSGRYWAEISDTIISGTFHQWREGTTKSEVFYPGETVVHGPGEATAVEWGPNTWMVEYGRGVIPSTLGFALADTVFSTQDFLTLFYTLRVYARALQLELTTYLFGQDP
Active and inactive are the calls of the source. The calls were made as follows: active = hit-call score of the fitted dose curve at least 0.9, where 1 is the maximum; inconclusive = response in the unintended direction; inactive = score below 0.9.
Response enum: TRUE = active, FALSE = inactive

Could you please tell me the result logged for CCOC(=O)COc1ccc2c(c1)CC(NCC(O)c1cccc(Cl)c1)CC2 (stereo unspecified) in this assay?
FALSE

Please give the result for `CCCN(C1CCN(C(=O)C2CCNCC2)CC1)[C@@H]1CCc2ccc(OC)cc2C1` too.
TRUE

Subsequent entry: O=C(O)CC(O)C(=O)O (stereo unspecified)
TRUE

Likewise for `CN(C)c1ccc(Cc2ccc(N(C)C)cc2)cc1` ?
TRUE

Can you handle `COc1cccc(-c2ccc(/C=C\CN3CCCCCC3)cc2Cl)c1` next?
TRUE

Now consider `Cc1[nH]cnc1C[C@H]1CCc2c(C)c3ccccc3n2C1=O` .
TRUE

====

read-out: ABC Transporter (ABCB1), ABCB1 (gene 5243); assay: LTEA_HepaRG_ABCB1: Life Technologies and Expression Analysis (LTEA) Assay for ABC Transporter (ABCB1) using HepaRG (AID 2283460); settings: mRNA level, 48 h; actives raise or lower the signal
The source made the active and inactive calls. The calls were made as follows: active = hit-call score of the fitted dose curve at least 0.9, where 1 is the maximum; inactive = score below 0.9.
One label from this list, please: active, inactive

For `CC(C)=CCC/C(C)=C\CO` , which call appears in the assay record?
inactive

Note, next up: `O=C(O)c1cc(N=Nc2ccc(S(=O)(=O)Nc3ccccn3)cc2)ccc1O`
inactive

// repeat for `O=C(O)c1cccc(N(Cc2cccnc2)c2ccc(OC(F)F)c(OC(F)F)c2)c1` and report
active

Now consider `Cc1ccc(N)cc1O` and answer again.
inactive

Entry to check: COc1ccc(-n2nc(C(F)F)cc2-c2ccc(S(C)=O)cc2)cc1 (stereo not given)
inactive

====

Read-out: Interferon-gamma inducible Protein 10 (IP10), CXCL10 (gene 3627)
Assay: BSK_BE3C_IP10: BioMAP Diversity Plus: BE3C Assay for Interferon-gamma inducible Protein 10 (IP10) Biomarker Activity (AID 2283034)
Settings: primary human bronchial epithelial cells; actives raise or lower the signal
Description: BSK_BE3C is a cell-based, multiplexed-readout assay that uses bronchial epithelial cell, a human lung primary cell, with measurements taken at 24 hours after chemical dosing in a 96-well plate.BSK_BE3C_IP10 is an assay component measured in the BSK_BE3C assay. It measures IP-10 antibody related to regulation of gene expression using ELISA technology.Data from the assay component BSK_BE3C_IP10 was analyzed into 1 assay endpoint. […]
The source made the active and inactive calls. How the source made its calls: active means hit-call score of the fitted dose curve at least 0.9, where 1 is the maximum; inactive means score below 0.9.
# valid calls are y for active, n for inactive; nothing else

Would you mind telling me which call this test gave `CC(C)c1cccc(C(C)C)c1N1C(=O)c2ccc(O)cc2C1=O` ?
y

Again, but for `O=C(O)c1cccc(N(Cc2cccnc2)c2ccc(OC(F)F)c(OC(F)F)c2)c1`
y

What about `COC(=O)c1ccccc1O` ?
n

CCCCC(CC)COC(=O)CCCCCCCCC(=O)OCC(CC)CCCC (stereo unspecified) ?
n

And for Fc1ccccc1[C@@H](F)COC1CCC(Nc2ncnc3[nH]ncc23)CC1 (stereo partly specified) ?
n

What do you get for `CCOc1cccc(-n2cc(C(=O)N3CCN(c4cc(C(=O)O)c5ccccc5c4)CC3)nc2-c2ccc(C)cc2)c1` ?
y

One more compound: `O=C(O)c1cc(N=Nc2ccc(S(=O)(=O)Nc3ccccn3)cc2)ccc1O`
n

Same again, this time with `O=P(OC(CCl)CCl)(OC(CCl)CCl)OC(CCl)CCl`
n

Same lookup for CC(C)=CCCC(C)CCO (stereo unspecified) , please.
n

Consider next the compound `Cn1cnc([N+](=O)[O-])c1Sc1ncnc2nc[nH]c12` in the same way.
n

And `CC[C@H](C)C(=O)O[C@H]1C[C@@H](C)C=C2C=C[C@H](C)[C@H](CC[C@@H]3C[C@@H](O)CC(=O)O3)[C@H]21` ?
y

Would you kindly repeat that for `CCN(C(=O)c1cc(C)cc(OC[C@H](C)Nc2ccncc2)c1)C(C)C` ?
n

What about this compound? O=C1CCC(N2C(=O)c3ccccc3C2=O)C(=O)N1 (stereo unspecified)
n

Then CCOC(=O)c1ccc(C2CCC(NC[C@H](O)COc3ccc(O)c(NS(C)(=O)=O)c3)CC2)cc1 (stereo partly specified) ?
n

Try this compound too: `O=C1CCCCCN1`
n

`Cn1c(=O)cc(Oc2ccc(F)cc2F)c2cnc(NCC(C)(C)O)nc21` , same question.
n

Please answer likewise for `C1N2CN3CN1CN(C2)C3`
n

What about this compound? `C=CC(=C)CCC=C(C)C`
n

And what about the compound `O=C(OC[C@H]1O[C@@H](OC(=O)c2cc(O)c(O)c(OC(=O)c3cc(O)c(O)c(O)c3)c2)[C@H](OC(=O)c2cc(O)c(O)c(OC(=O)c3cc(O)c(O)c(O)c3)c2)[C@@H](OC(=O)c2cc(O)c(O)c(OC(=O)c3cc(O)c(O)c(O)c3)c2)[C@@H]1OC(=O)c1cc(O)c(O)c(OC(=O)c2cc(O)c(O)c(O)c2)c1)c1cc(O)c(O)c(OC(=O)c2cc(O)c(O)c(O)c2)c1` ?
y

Another compound to look at: `CCCN(C1CCN(C(=O)C2CCNCC2)CC1)[C@@H]1CCc2ccc(OC)cc2C1`
n

Next record, please: `CCn1nc(Cc2ccccc2)cc1C1CCN(C[C@H]2C[C@H](N(C)[C@@H](C(=O)O)C(C)C)C[C@@H]2c2cccc(F)c2)CC1`
n

====

read-out: UDP glucuronosyltransferase (UGT1A6), UGT1A6 (gene 54578); test: LTEA_HepaRG_UGT1A6: Life Technologies and Expression Analysis (LTEA) Assay for UDP glucuronosyltransferase (UGT1A6) using HepaRG (AID 2283539); settings: mRNA level, 48 h; actives raise or lower the signal
Active and inactive are the calls of the source. How the source made its calls: active means hit-call score of the fitted dose curve at least 0.9, where 1 is the maximum; inactive means score below 0.9.
Choose one outcome from this list and give only that: active, inactive

// param item: `Cc1[nH]cnc1C[C@H]1CCc2c(C)c3ccccc3n2C1=O` ; yields the recorded call
active

Cool, now `CCc1cc(SCc2sc(-c3ccc(C(F)(F)F)cc3)nc2CN2CCN(c3ccc(OC)cc3)CC2)ccc1OCC(=O)O`
active

Repeat with `COc1ccc(/C=C/S(=O)(=O)NC(=O)c2ccc(C)cc2Cl)cc1`
inactive

Also need `Oc1ccc2c(c1)-c1ccccc1C2` , thanks.
inactive

====

biological target: Cellular tumor antigen p53 (Homo sapiens); test: TOX21_p53_BLA_p5_ratio: Tox21 HCT-116 p53 Agonism Beta-lactamase Assay, Ratio, Phase 5 (AID 2283599)
Records with an inconclusive call do not appear. Active and inactive are the calls of the source. The calls were made as follows: active = hit-call score of the fitted dose curve at least 0.9, where 1 is the maximum; inconclusive = response in the unintended direction; inactive = score below 0.9.
A correct response names exactly one class from active, inactive

For this compound, state the assay outcome: `Cn1c(=O)c2c(ncn2C)n(C)c1=O`
inactive

Try the compound `O=C1CCCCCN1`
inactive

Also need `CCOCCOCCOCCO` , thanks.
inactive

Now consider `O=C(CCCCCCCCc1cccnc1)N1CCC(C=C(c2ccccc2)c2ccccc2)CC1` .
inactive

Cool, now `CCNc1ccccc1`
inactive

Another compound to check: CCOC(=O)COc1ccc2c(c1)CC(NCC(O)c1cccc(Cl)c1)CC2 (centres undefined)
inactive

Then this compound: `CC(=O)OCCC(C)C`
inactive

And for `Nc1cccc(N)c1` ?
inactive

One more compound: `O=C(O)c1cccc(Oc2ccccc2)c1`
inactive

Same read-out for `C=CCCCCCCCCC(=O)O` ?
inactive

Next compound: `CCCCCCCCCCCCCCCO`
inactive

Try this compound too: O=c1[nH]c2ccc(S(=O)CCN3CCC(Cc4ccc(F)cc4)CC3)cc2o1 (centres undefined)
inactive

What about `CCOc1cccc(-n2cc(C(=O)N3CCN(c4cc(C(=O)O)c5ccccc5c4)CC3)nc2-c2ccc(C)cc2)c1` ?
active

Queued: `Cc1ccc(O)cc1`
inactive

====

read-out: BCL2L11 (gene 10018); test: LTEA_HepaRG_BCL2L11: Life Technologies and Expression Analysis (LTEA) Assay for Bcl-2 (BCL2L11) gene using HepaRG (AID 2283473); conditions: mRNA level, 48 h; actives raise or lower the signal
Active and inactive are the calls of the source. How the source made its calls: active means hit-call score of the fitted dose curve at least 0.9, where 1 is the maximum; inactive means score below 0.9.
Respond using exactly one of the listed classes: active, inactive

Per the records of this test, what outcome belongs to O=c1n(CC2CO2)c(=O)n(CC2CO2)c(=O)n1CC1CO1 (stereo not given) ?
inactive

And for `CC(C)=CCCC(C)=CC=O` ?
inactive

Next compound up: `COc1cccc(-c2ccc(/C=C\CN3CCCCCC3)cc2Cl)c1`
inactive

Now the compound `CCc1cc(SCc2sc(-c3ccc(C(F)(F)F)cc3)nc2CN2CCN(c3ccc(OC)cc3)CC2)ccc1OCC(=O)O`
active

Now consider CC(O)CN(CCN(CC(C)O)CC(C)O)CC(C)O (stereo not given) .
inactive

Cool, now `CCOC(=O)CC(CC(=O)OCC)(OC(C)=O)C(=O)OCC`
inactive

Continue with `O=C(O)c1cccc(N(Cc2cccnc2)c2ccc(OC(F)F)c(OC(F)F)c2)c1`
inactive

Entry to check: CNS(=O)(=O)c1cc(C(=O)N2CCC(CCN3C4CCC3CC(n3c(C)nc5ccccc53)C4)(c3cccc(F)c3)CC2)c(Cl)cc1F (stereo not given)
inactive

Same for O=c1[nH]c2ccc(S(=O)CCN3CCC(Cc4ccc(F)cc4)CC3)cc2o1 (stereo not given)
inactive

Try the compound `O=C(NS(=O)(=O)/C=C/c1ccccc1)c1ccc(F)cc1Cl`
inactive
